Recorded measurements of EC50, one per entry
- METHOD: Anti-inflammatory activity in Sprague-Dawley rat primary mixed glial cells assessed as inhibition of LPS-induced NO production pretreated for 2 hrs followed by LPS addition measured after 48 hrs by Griess assay
- Assay type: functional, cell-based
- EXPERIMENTAL PARAMETERS: Glial cell

STRUCTURE SMILES STRING | EC50
COc1ccc(/C=C/c2cc(C=O)cc(OC)c2O)cc1OC | 43 µM
CCOC(=O)/C=C/c1ccc(/C=C/c2cc(O)c(O)c(O)c2)cc1 | 99.2 µM
COc1cc(Br)cc(/C=C/c2ccc3c(c2)OCO3)c1O | 84.8 µM
Oc1ccc(-c2cc3cc(Br)cc(O)c3o2)cc1O | > 100 µM
CCOC(=O)/C=C/c1cc(O)c(O)cc1-c1cc2cccc(O)c2o1 | 82.5 µM
CCOC(=O)/C=C/c1cccc(/C=C/c2cc(O)c(O)c(O)c2)c1 | 48.9 µM
CCOC(=O)/C=C/c1cc(O)c2oc(-c3cc(O)c(O)c(O)c3)cc2c1 | 56.6 µM
CCOC(=O)/C=C/c1cc(O)c(O)cc1-c1cc2ccccc2o1 | > 100 µM
Oc1ccc(-c2cc3c(Br)ccc(O)c3o2)cc1O | > 100 µM
Oc1cc(-c2cc3ccccc3o2)c(Br)c(O)c1O | 39.2 µM
CCOC(=O)/C=C/c1ccc(OC)c(O)c1/C=C/c1ccc2c(c1)OCO2 | 67 µM
